Listing: polymerase ribozyme fitness (log ratio) of selected variants
B1: TPR t1 (parent)
chain: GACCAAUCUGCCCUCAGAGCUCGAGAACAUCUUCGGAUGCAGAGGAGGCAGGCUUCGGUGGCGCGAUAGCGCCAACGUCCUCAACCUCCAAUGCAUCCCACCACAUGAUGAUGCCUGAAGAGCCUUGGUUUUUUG

# Variants of: B1
# Assay Comment: polymerase ribozyme fitness, log enrichment relative to wild type (log ratio); higher = more active; in vitro selection for triplet polymerase activity
Respond using a number only.

G47A U59G A91U G113A : -2.02

Entry G45C C99U ; polymerase ribozyme fitness (log ratio) = -4.05

Given item U9A G39C G61C U78A U87G G110U , the value recorded as its polymerase ribozyme fitness (log ratio) is -2

Lab note: A26U A41C gave polymerase ribozyme fitness (log ratio) of -4.03

Measured polymerase ribozyme fitness (log ratio) of U109A G120C : -4
